FYI, the data here is from patent US5637619A.

Test: Body weight change / toxicity in L1210-bearing mice
Assay type: in vivo, mice (CD2F1)
Conditions: 5 mg/kg ip once daily × 6; L1210-bearing mice
Measured Property: Av. Wt. Change % (%)
Kindly answer with a numeric value in %, unit omitted.

Field: example entries. Status: answers known.
CCOC(=O)C(C)NC(=O)N(N(CCCl)S(C)(=O)=O)S(C)(=O)=O (stereo not drawn) | -2.0
C=CCNC(=O)N(N(CCCl)S(C)(=O)=O)S(C)(=O)=O | -1.6
CCOC(=O)CNC(=O)N(N(CCCl)S(C)(=O)=O)S(C)(=O)=O | -1.5

Find the measured Av. Wt. Change % of CCOC(=O)C(Cc1ccccc1)NC(=O)N(N(CCCl)S(C)(=O)=O)S(C)(=O)=O (stereo not drawn) and report it.
-2.5

Identify measured Av. Wt. Change % associated with CS(=O)(=O)N(CCCl)N(C(=O)NCCCCl)S(C)(=O)=O
-2.8
